All values here come from ChEMBL document CHEMBL4017480.

Experiment: Intrinsic clearance in human liver microsomes at 1 uM measured after 60 mins in presence of NADPH by LC-MS/MS analysis
Type: ADME, microsome
Conditions: read-out: CLH
quantity_name: CLint scaled at 1 µM (mL/min/kg)

Illustrative cases are given below, each with its answer.
compound	unit_symbol	CLint scaled at 1 µM
C=CC(=O)N[C@H]1CCOC[C@H]1Nc1ncc(OCc2c(F)c(OC)cc(OC)c2F)cn1	mL/min/kg	46
C=CC(=O)Nc1cccc(C)c1Nc1ncc(OCc2c(F)c(OC)cc(OC)c2F)cn1	mL/min/kg	165
C=CC(=O)Nc1cc(N2CCN(CC)CC2)cc(C)c1Nc1ncc(OCc2c(F)c(OC)cc(OC)c2F)cn1	mL/min/kg	120
C=CC(=O)Nc1cccc(C)c1Nc1ncc2cc(-c3c(Cl)c(OC)cc(OC)c3Cl)ccc2n1	mL/min/kg	41
C=CC(=O)Nc1cc(N2CCN(C(C)=O)CC2)cc(C)c1Nc1ncc(OCc2c(F)c(OC)cc(OC)c2F)cn1	mL/min/kg	265

[a] C=CC(=O)N[C@H]1CCCC[C@H]1Nc1ncc(OCc2c(F)c(OC)cc(OC)c2F)cn1 (racemic)
[b] C=CC(=O)N[C@H]1COC[C@H]1Nc1ncc(OCc2c(F)c(OC)cc(OC)c2F)cn1
Exercise: // compare measured CLint scaled at 1 µM between a and b ; output the lower one Field: selected label. Fill in the label of the entry you choose.
Solution: b

----------
Experiment: Unbound plasma concentration in rat at 2 uM measured after 4 hrs by LC-MS/MS analysis
Assay type: ADME, cell-free
quantity_name: fraction unbound at 4 h, 2 µM
# print the numeric value only

Exercise: Fill blank: measured fraction unbound at 4 h, 2 µM of the molecule C=CC(=O)N[C@H]1COC[C@H]1Nc1ncc(OCc2c(F)c(OC)cc(OC)c2F)cn1 is ____.
Solution: 0.309

----------
Target: Fibroblast growth factor receptor 1 (Homo sapiens)
Sequence (P11362 whole entry, the tested form may be a part): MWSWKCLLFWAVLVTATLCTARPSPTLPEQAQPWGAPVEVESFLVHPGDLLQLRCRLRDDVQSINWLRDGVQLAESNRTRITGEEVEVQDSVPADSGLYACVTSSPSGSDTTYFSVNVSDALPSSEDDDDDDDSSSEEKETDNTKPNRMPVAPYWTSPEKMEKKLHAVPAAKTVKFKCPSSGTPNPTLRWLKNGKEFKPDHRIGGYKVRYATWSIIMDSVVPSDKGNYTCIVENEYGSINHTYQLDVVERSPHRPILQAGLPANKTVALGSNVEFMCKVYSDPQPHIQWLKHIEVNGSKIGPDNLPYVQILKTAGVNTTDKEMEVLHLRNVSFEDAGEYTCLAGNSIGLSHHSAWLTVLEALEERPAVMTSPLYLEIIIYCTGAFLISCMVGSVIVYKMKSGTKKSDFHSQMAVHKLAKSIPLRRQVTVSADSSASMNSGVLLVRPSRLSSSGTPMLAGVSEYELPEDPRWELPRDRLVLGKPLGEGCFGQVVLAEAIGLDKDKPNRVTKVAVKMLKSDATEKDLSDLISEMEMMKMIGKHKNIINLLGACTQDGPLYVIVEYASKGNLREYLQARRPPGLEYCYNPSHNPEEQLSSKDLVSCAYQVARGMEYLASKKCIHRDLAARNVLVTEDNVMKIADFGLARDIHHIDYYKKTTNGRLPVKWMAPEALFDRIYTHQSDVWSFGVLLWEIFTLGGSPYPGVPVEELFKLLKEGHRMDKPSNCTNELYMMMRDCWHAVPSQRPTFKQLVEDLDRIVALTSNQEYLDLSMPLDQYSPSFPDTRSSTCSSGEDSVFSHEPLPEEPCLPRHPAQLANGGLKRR
Test: Inhibition of recombinant human His-tagged FGFR1 cytoplasmic domain (308 to 731 residues) expressed in baculovirus expression system using tyr 04 as substrate measured within 60 mins by Z-LYTE assay
quantity_name: IC50 (µM)

Worked examples, 3 compounds total:
compound	unit_symbol	IC50
C=CC(=O)Nc1cc(N2CCN(CC)CC2)cc(C)c1Nc1ncc(OCc2c(F)c(OC)cc(OC)c2F)cn1	µM	2.9
C=C(C)C(=O)Nc1cc(N2CCN(CC)CC2)cc(C)c1Nc1ncc(OCc2c(F)c(OC)cc(OC)c2F)cn1	µM	4.8
C=CC(=O)N[C@H]1CCCC[C@H]1Nc1ncc(OCc2c(F)c(OC)cc(OC)c2F)cn1 (racemic)	µM	3.3

[I] C=CC(=O)Nc1cc(N2CCN(C(C)=O)CC2)cc(C)c1Nc1ncc(OCc2c(F)c(OC)cc(OC)c2F)cn1
[II] C=CC(=O)Nc1ccccc1Nc1ncc(OCc2c(F)c(OC)cc(OC)c2F)cn1
Exercise: Which of the two items, I and II , has the greater recorded IC50? Write down the label of the entry you select.
Solution: I

[I] C=CC(=O)N[C@@H]1COC[C@@H]1Nc1ncc(OCc2c(F)c(OC)cc(OC)c2F)cn1
[II] C=CC(=O)N[C@H]1COC[C@H]1Nc1ncc(OCc2c(F)c(OC)cc(OC)c2F)cn1
Exercise: Just curious, which one has the larger IC50 reading, I or II ? Write down the label of the entry you select.
Solution: I

----------
Assay: Octanol-buffer distribution co-efficient, log D of the compound at pH 7.4
Assay type: physicochemical
quantity_name: logD

[a] C=CC(=O)Nc1cccc(C)c1Nc1ncc(OCc2c(F)c(OC)cc(OC)c2F)cn1
[b] C=CC(=O)N[C@H]1COC[C@H]1Nc1ncc(OCc2c(F)c(OC)cc(OC)c2F)cn1
Exercise: Hi there, can you help? I need to know whether a or b has lower measured logD. Which one? Tell me its label.
Solution: b
(b: 1.8, a: 3)

----------
Assay: Unbound plasma concentration in human at 2 uM measured after 4 hrs by LC-MS/MS analysis
Type: ADME, cell-free
quantity_name: fraction unbound at 4 h, 2 µM
The answer should be a number; do not append a unit.

Exercise: # lookup: fraction unbound at 4 h, 2 µM of C=CC(=O)N[C@H]1COC[C@H]1Nc1ncc(OCc2c(F)c(OC)cc(OC)c2F)cn1
Solution: 0.354

----------
Target sequence: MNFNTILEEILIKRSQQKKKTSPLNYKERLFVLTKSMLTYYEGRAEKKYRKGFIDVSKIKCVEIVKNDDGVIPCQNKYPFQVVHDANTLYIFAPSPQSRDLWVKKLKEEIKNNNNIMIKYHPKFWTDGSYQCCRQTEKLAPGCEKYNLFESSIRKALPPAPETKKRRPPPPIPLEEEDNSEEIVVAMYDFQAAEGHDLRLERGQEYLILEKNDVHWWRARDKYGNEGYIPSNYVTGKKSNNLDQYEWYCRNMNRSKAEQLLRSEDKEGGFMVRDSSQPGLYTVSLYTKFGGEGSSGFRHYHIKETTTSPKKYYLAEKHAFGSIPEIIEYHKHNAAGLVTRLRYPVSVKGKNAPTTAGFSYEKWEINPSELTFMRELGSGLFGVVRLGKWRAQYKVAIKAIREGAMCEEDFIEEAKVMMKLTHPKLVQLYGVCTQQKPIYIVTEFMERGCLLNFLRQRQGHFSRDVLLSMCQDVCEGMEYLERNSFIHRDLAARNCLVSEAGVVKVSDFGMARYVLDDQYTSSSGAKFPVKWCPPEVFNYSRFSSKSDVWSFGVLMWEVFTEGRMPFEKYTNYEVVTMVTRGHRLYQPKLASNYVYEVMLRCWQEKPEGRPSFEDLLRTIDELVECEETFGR
pIC50: −log10 of the molar value.
Measured pIC50 accompanies every entry in the list below.

compound_structure_string	pIC50
C=CC(=O)Nc1cccc(C)c1Nc1ncc(OCc2c(F)c(OC)cc(OC)c2F)cn1	< 5.00

From here, focus on the item given below.
Exercise: Recorded pIC50 for C=CC(=O)N[C@H]1COC[C@H]1Nc1ncc(OCc2c(F)c(OC)cc(OC)c2F)cn1 , please?
Solution: < 5.00

----------
Experiment: Stability in mouse plasma assessed as compound remaining at 2 uM measured after 2 hrs by LC-MS/MS analysis
Type: ADME, cell-free
Settings: read-out: Stability
quantity_name: remaining at 2 h, 2 µM (%)

[I] C=CC(=O)Nc1cccc(C)c1Nc1ncc(OCc2c(F)c(OC)cc(OC)c2F)cn1
[II] C=CC(=O)Nc1cccc(C)c1Nc1ncc2cc(-c3c(Cl)c(OC)cc(OC)c3Cl)ccc2n1
Exercise: When the recorded remaining at 2 h, 2 µM values are compared, which is smaller: that of I or that of II ? Identify your pick by its label.
Solution: I
(I: 13%, II: 63%)

[P] C=CC(=O)Nc1cc(N2CCN(CC)CC2)cc(C)c1Nc1ncc(OCc2c(F)c(OC)cc(OC)c2F)cn1
[Q] C=CC(=O)N[C@H]1COC[C@H]1Nc1ncc(OCc2c(F)c(OC)cc(OC)c2F)cn1
Exercise: Please indicate which has the smaller reported remaining at 2 h, 2 µM: P , or Q . Give the label of your selection.
Solution: P

[P] C=CC(=O)N[C@H]1CCOC[C@H]1Nc1ncc(OCc2c(F)c(OC)cc(OC)c2F)cn1
[Q] C=C(C)C(=O)Nc1cc(N2CCN(CC)CC2)cc(C)c1Nc1ncc(OCc2c(F)c(OC)cc(OC)c2F)cn1
[R] C=CC(=O)Nc1cccc(C)c1Nc1ncc(OCc2c(Cl)c(OC)cc(OC)c2Cl)cn1
Exercise: Ordering criterion: remaining at 2 h, 2 µM; begin with the maximum. Give the labels in the order requested.
Solution: P, Q, R
(P: 100%, Q: 0.4%, R: 0.2%)

[A] C=CC(=O)N[C@H]1CCCC[C@H]1Nc1ncc(OCc2c(F)c(OC)cc(OC)c2F)cn1 (racemic)
[B] C=CC(=O)Nc1cc(N2CCN(C(C)=O)CC2)cc(C)c1Nc1ncc(OCc2c(F)c(OC)cc(OC)c2F)cn1
Exercise: // compare: A vs B , metric remaining at 2 h, 2 µM, want the smaller Return value: the label identifying the chosen record.
Solution: B

----------
Target: Fibroblast growth factor receptor 4 (Homo sapiens)
Sequence (P22455 whole entry, the tested form may be a part): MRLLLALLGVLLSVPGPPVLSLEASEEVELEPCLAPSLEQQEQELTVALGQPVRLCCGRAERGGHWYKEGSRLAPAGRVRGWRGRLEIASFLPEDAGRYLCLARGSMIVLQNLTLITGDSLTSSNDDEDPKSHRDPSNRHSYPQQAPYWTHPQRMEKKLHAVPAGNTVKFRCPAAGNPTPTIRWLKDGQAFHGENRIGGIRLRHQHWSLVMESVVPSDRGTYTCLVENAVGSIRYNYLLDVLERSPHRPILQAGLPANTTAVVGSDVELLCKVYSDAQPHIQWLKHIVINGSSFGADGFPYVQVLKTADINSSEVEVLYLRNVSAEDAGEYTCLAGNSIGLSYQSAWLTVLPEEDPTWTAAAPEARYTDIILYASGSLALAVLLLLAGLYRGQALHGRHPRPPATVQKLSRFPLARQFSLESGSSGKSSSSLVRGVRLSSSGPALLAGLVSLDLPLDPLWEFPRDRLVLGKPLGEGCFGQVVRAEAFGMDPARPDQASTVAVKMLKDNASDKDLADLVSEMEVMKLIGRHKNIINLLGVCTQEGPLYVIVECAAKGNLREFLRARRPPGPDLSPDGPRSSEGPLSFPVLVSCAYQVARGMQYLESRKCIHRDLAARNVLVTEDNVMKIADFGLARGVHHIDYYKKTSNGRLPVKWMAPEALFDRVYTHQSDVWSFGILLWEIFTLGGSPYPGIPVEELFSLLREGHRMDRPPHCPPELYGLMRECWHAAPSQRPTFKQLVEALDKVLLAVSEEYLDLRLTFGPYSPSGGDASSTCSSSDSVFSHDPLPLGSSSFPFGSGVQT
Test: Inhibition of recombinant human N-terminal His-tagged FGFR4 cytoplasmic domain […] expressed in baculovirus expression system using tyr 04 peptide as substrate measured within 90 mins by Z-LYTE assay
pIC50: −log10 of the molar value.
quantity_name: pIC50

compound_structure_string	pIC50
C=CC(=O)N[C@H]1COC[C@H]1Nc1ncc(OCc2c(F)c(OC)cc(OC)c2F)cn1	7.89

[P] C=CC(=O)N[C@@H]1COC[C@@H]1Nc1ncc(OCc2c(F)c(OC)cc(OC)c2F)cn1
[Q] C=CC(=O)Nc1cccc(C)c1Nc1ncc(OCc2c(F)c(OC)cc(OC)c2F)cn1
Exercise: Of P and Q , whose reported pIC50 is numerically smaller? Kindly give the label for the entry you pick.
Solution: P

----------
Assay: Efflux ratio of apparent permeability from basolateral to apical over apical to basolateral side in MDCK2-MDR1 cells at 2 uM after 2.5 hrs LC-MS/MS analysis
Assay type: ADME, cell-based, Canis lupus familiaris
Conditions: dog, MDCK-MDR1
quantity_name: efflux ratio at 2.5 h, 2 µM

[1] C=CC(=O)Nc1cccc(C)c1Nc1ncc(OCc2c(F)c(OC)cc(OC)c2F)cn1
[2] C=CC(=O)N[C@H]1COC[C@H]1Nc1ncc(OCc2c(F)c(OC)cc(OC)c2F)cn1
Exercise: // returns 1 or 2 , whichever has the lower efflux ratio at 2.5 h, 2 µM Reply with the label of the item you choose.
Solution: 1
(1: 1, 2: 3.8)
